# System name: T1, α-parvin-CHC (C-terminal calponin homology domain fragment of human α-parvin, residues 242-372) (human, UniProt Q9NVD7 242-372)
# T1 construct: α-parvin, human, residues 242-372: the entire C-terminal CH domain and a portion of the inter-CH domain linker; Expressed from pGEX-6P1 (BamHI/EcoRI); also called type-5 CH domain of α-parvin; actopaxin; source: E. coli BL21, GST fusion, purified (glutathione sepharose, 3C-protease cleavage, Superdex 75); 15N-enriched for NMR
# T1 sequence (looked up): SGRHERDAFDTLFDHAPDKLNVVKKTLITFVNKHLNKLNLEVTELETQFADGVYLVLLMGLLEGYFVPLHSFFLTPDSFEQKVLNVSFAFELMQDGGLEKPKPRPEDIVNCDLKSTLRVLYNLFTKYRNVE
# Test description: fluorescence polarisation; fluorescence anisotropy; 50 nM 5-FAM-labeled LD1 peptide, protein up to 300 μM; 100 mM potassium phosphate, 2 mM DTT, pH 8.0, 25°C; global fit to a single-site model
# Protocol conditions: both partners purified
Where no end group is shown, it is not given here. The star is where a group is joined. 5FAM = O=C1OC2(c3ccc(O)cc3Oc3cc(O)ccc32)c2ccc(C(=O)*)cc21
Endpoint: pKd
By convention, pKd is the negative base-10 log of a molar concentration.

**Query** Query (binder): MDDLDALLADLESTTSHISK(5FAM) (paxillin, human, LD1 motif, residues 1-20; also called fluorophore-labeled LD1 peptide; source: synthetic peptide, bought: Severn Biotech) [5-FAM-labeled LD1 peptide (paxillin residues 1-20)] ; field requested: pKd
**Result** 3.92
